Origin of values: patent US6716833B2

study-target: MMP-1 (Homo sapiens, UniProt P03956)
Sequence (P03956 100-469): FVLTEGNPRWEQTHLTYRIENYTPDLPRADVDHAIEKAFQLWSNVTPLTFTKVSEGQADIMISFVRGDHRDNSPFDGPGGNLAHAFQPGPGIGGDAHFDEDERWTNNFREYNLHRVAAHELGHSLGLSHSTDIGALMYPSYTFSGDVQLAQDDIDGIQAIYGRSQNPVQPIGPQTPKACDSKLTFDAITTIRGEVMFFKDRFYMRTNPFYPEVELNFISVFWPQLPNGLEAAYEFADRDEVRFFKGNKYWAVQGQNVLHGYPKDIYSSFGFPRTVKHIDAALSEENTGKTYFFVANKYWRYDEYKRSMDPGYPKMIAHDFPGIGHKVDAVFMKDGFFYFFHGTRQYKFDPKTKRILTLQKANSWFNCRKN
assay-protocol: MMP-1 inhibition (thiopeptide or fluorescent peptide substrate)
Assay type: biochemical
run-parameters: read-out: MMP-1 IC50
Structures can show the parent of a compound that is named as a salt.
For each of the compounds below, state its IC50.
Numbers only, in nM.

Past entries and their recorded results:
CC#CCOc1ccc(S(=O)(=O)N(CCCN2CCN(C)CC2)C(C(=O)NO)C(C)C)cc1 (centres unmarked) [Example 120, Hydrochloride]
111
CC#CCOc1ccc(S(=O)(=O)N(C)C(C(=O)NO)c2ccc(OCCN3CCOCC3)cc2)cc1 (centres unmarked) [Example 179]
546
CC#CCOc1ccc(S(=O)(=O)N(C)[C@H](CSC)C(=O)NO)cc1 [Example 154]
47
CC#CCOc1ccc(S(=O)(=O)N(C)C(C(=O)NO)c2ccc(OCCCNC(=O)Nc3ccccc3)cc2)cc1 (centres unmarked) [Example 198]
834

// each listed compound needs a value for IC50
1. CC#CCOc1ccc(S(=O)(=O)NC(C(=O)NO)C(C)(C)SCc2ccccc2)cc1 (centres unmarked) [Example 162]
2. CC#CCOc1ccc(S(=O)(=O)N(C)C(C(=O)NO)c2ccc(OCCN(C)C)cc2)cc1 (centres unmarked) [Example 182]
3. CC#CCOc1ccc(S(=O)(=O)N2CCCS(=O)(=O)C[C@@H]2C(=O)NO)cc1 [Example 175]

Outgoing:
[310, 487, 1030]

// each listed compound needs a value for IC50
1. CC#CCOc1ccc(S(=O)(=O)N2CCN(C(=O)OC(C)(C)C)CC2C(=O)NO)cc1 (centres unmarked) [Example 58]
2. CC#CCOc1ccc(S(=O)(=O)NC(CSCc2ccccc2)C(=O)NO)cc1 (centres unmarked) [Example 168]
3. CC#CCOc1ccc(S(=O)(=O)N2CCN(C(=O)c3ccccc3)CCC2C(=O)NO)cc1 (centres unmarked) [Example 289]
4. CC#CCOc1ccc(S(=O)(=O)N2CCN(C(=O)OC(C)(C)C)CCC2C(=O)NO)cc1 (centres unmarked) [Example 291]
5. CC#CCOc1ccc(S(=O)(=O)N(CCC)C(C(=O)NO)C(C)C)cc1 (centres unmarked) [Example 110]
6. CC#CCOc1ccc(S(=O)(=O)N2CCN(Cc3cccnc3)CC2C(=O)NO)cc1 (centres unmarked) [Example 234]
7. CC#CCOc1ccc(S(=O)(=O)N(C)C2(C(=O)NO)CCCCC2)cc1 [Example 136]

Outgoing:
456
1970
113
92
196
3200
682
